system: proteinase K; test: Proteolytic stability of compound assessed as proteinase K (unknown origin)-mediated drug degradation at 0.4 mM by measuring half life measured after 24 hrs by RP-HPLC analysis; type: ADME; conditions: human
endpoint_name: half-life at 400 µM (h)
Numeric only. Scale: h

# molecular_string, endpoint_name, recorded_result
measured = [
    ("CCCCCCCCCCCCCCCC(=O)N[C@H](C(=O)N[C@H](Cc1cnc[nH]1)C(=O)N[C@@H](CCC(N)=O)C(=O)N[C@@H](CCC(=O)O)C(=O)N[C@@H](CC(C)C)C(=O)N[C@@H](CCCNC(=N)N)C(=O)N[C@@H](CCCNC(=N)N)C(=O)N[C@H](C(=O)NCC(=O)N[C@@H](CC(=O)O)C(=O)N[C@@H](CCC(=O)O)C(=O)N[C@@H](Cc1ccccc1)C(=O)O)[C@@H](C)CC)[C@@H](C)CC", "half-life at 400 µM", 3.79),
]

Prompt line: Param item = "CCCCCCCCCCCCCCCC(=O)N[C@H](C(=O)N[C@@H](C)C(=O)N[C@@H](CCC(N)=O)C(=O)N[C@@H](CCC(=O)O)C(=O)N[C@@H](CC(C)C)C(=O)N[C@@H](CCCNC(=N)N)C(=O)N[C@@H](CCCNC(=N)N)C(=O)N[C@@H](C(=O)NCC(=O)N[C@@H](CC(=O)O)C(=O)N[C@@H](CCC(=O)O)C(=O)N[C@@H](Cc1ccccc1)C(=O)O)[C@@H](C)CC)[C@@H](C)CC" ; retrieve measured half-life at 400 µM.
Response line: 8.87

---

Listing of recorded half-life at 40000 µM by entry.
tested on: pepsin; test: Proteolytic stability of compound assessed as pepsin (unknown origin)-mediated drug degradation at 40 mM by measuring half life measured after 24 hrs by RP-HPLC analysis; format: ADME; details: human
Numeric only. Scale: h

Some solved entries appear below for comparison.
# molecular_string, assayed_target, half-life at 40000 µM (h)
rows = [
    ("CCCCCCCCCCCCCCCC(=O)N[C@H](C(=O)N[C@@H](C)C(=O)N[C@@H](CCC(N)=O)C(=O)N[C@@H](CCC(=O)O)C(=O)N[C@@H](CC(C)C)C(=O)N[C@@H](CCCNC(=N)N)C(=O)N[C@@H](CCCNC(=N)N)C(=O)N[C@H](C(=O)NCC(=O)N[C@@H](CC(=O)O)C(=O)N[C@@H](CCC(=O)O)C(=O)N[C@@H](Cc1ccccc1)C(=O)O)[C@@H](C)CC)[C@@H](C)CC", "pepsin", 2.7),
    ("CCCCCCCCCCCCCCCC(=O)N[C@H](C(=O)N[C@H](C)C(=O)N[C@@H](CCC(N)=O)C(=O)N[C@@H](CCC(=O)O)C(=O)N[C@@H](CC(C)C)C(=O)N[C@@H](CCCNC(=N)N)C(=O)N[C@@H](CCCNC(=N)N)C(=O)N[C@H](C(=O)NCC(=O)N[C@@H](CC(=O)O)C(=O)N[C@@H](CCC(=O)O)C(=O)N[C@@H](Cc1ccccc1)C(=O)O)[C@@H](C)CC)[C@@H](C)CC", "pepsin", 2.42),
]

Prompt line: Param item = "CCCCCCCCCCCCCCCC(=O)N[C@H](C(=O)N[C@@H](C)C(=O)N[C@@H](CCC(N)=O)C(=O)N[C@@H](CCC(=O)O)C(=O)N[C@@H](CC(C)C)C(=O)N[C@@H](CCCNC(=N)N)C(=O)N[C@@H](CCCNC(=N)N)C(=O)N[C@@H](C(=O)NCC(=O)N[C@@H](CC(=O)O)C(=O)N[C@@H](CCC(=O)O)C(=O)N[C@@H](Cc1ccccc1)C(=O)O)[C@@H](C)CC)[C@@H](C)CC" ; retrieve measured half-life at 40000 µM.
Response line: 1.42

---

Target: Tyrosine-protein phosphatase non-receptor type 1 (Homo sapiens)
Sequence (P18031 whole entry): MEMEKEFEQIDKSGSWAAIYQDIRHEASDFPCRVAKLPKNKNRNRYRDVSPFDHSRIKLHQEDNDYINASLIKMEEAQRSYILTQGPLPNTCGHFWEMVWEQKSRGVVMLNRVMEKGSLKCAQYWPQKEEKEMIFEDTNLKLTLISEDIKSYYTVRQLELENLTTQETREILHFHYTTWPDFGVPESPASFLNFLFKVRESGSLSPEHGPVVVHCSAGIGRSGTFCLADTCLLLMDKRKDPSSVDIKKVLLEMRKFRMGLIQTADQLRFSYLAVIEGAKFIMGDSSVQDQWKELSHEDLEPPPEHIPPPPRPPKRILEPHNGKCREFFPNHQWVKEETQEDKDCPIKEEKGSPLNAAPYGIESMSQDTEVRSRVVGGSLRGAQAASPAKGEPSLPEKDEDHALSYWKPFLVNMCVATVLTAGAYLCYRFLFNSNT
Assay: Inhibition of recombinant human PTPN1 using p-nitrophenyl phosphate as substrate by spectrophotometric analysis
endpoint_name: IC50 (nM)
Numeric only. Scale: nM

# molecular_string, recorded_result
measured = [
    ("CCCCCCCCCCCCCCCC(=O)N[C@H](C(=O)N[C@@H](C)C(=O)N[C@@H](CCC(N)=O)C(=O)N[C@@H](CCC(=O)O)C(=O)N[C@@H](CC(C)C)C(=O)N[C@@H](CCCNC(=N)N)C(=O)N[C@@H](CCCNC(=N)N)C(=O)N[C@@H](C(=O)NCC(=O)N[C@@H](CC(=O)O)C(=O)N[C@@H](CCC(=O)O)C(=O)N[C@@H](Cc1ccccc1)C(=O)O)[C@@H](C)CC)[C@@H](C)CC", 294),
    ("CCCCCCCCCCCCCCCC(=O)N[C@H](C(=O)N[C@H](CCCCN)C(=O)N[C@@H](CCC(N)=O)C(=O)N[C@@H](CCC(=O)O)C(=O)N[C@@H](CC(C)C)C(=O)N[C@@H](CCCNC(=N)N)C(=O)N[C@@H](CCCNC(=N)N)C(=O)N[C@H](C(=O)NCC(=O)N[C@@H](CC(=O)O)C(=O)N[C@@H](CCC(=O)O)C(=O)N[C@@H](Cc1ccccc1)C(=O)O)[C@@H](C)CC)[C@@H](C)CC", 2140),
    ("CCCCCCCCCCCCCCCC(=O)N[C@H](C(=O)N[C@@H](C(=O)N[C@@H](CCC(N)=O)C(=O)N[C@@H](CCC(=O)O)C(=O)N[C@@H](CC(C)C)C(=O)N[C@@H](CCCNC(=N)N)C(=O)N[C@@H](CCCNC(=N)N)C(=O)N[C@H](C(=O)NCC(=O)N[C@@H](CC(=O)O)C(=O)N[C@@H](CCC(=O)O)C(=O)N[C@@H](Cc1ccccc1)C(=O)O)[C@@H](C)CC)C(C)C)[C@@H](C)CC", 805),
    ("CCCCCCCCCCCCCCCC(=O)N[C@H](C(=O)N[C@H](C)C(=O)N[C@@H](CCC(N)=O)C(=O)N[C@@H](CCC(=O)O)C(=O)N[C@@H](CC(C)C)C(=O)N[C@@H](CCCNC(=N)N)C(=O)N[C@@H](CCCNC(=N)N)C(=O)N[C@H](C(=O)NCC(=O)N[C@@H](CC(=O)O)C(=O)N[C@@H](CCC(=O)O)C(=O)N[C@@H](Cc1ccccc1)C(=O)O)[C@@H](C)CC)[C@@H](C)CC", 395),
    ("CCCCCCCCCCCCCCCC(=O)N[C@H](C(=O)N[C@H](Cc1ccc(O)cc1)C(=O)N[C@@H](CCC(N)=O)C(=O)N[C@@H](CCC(=O)O)C(=O)N[C@@H](CC(C)C)C(=O)N[C@@H](CCCNC(=N)N)C(=O)N[C@@H](CCCNC(=N)N)C(=O)N[C@H](C(=O)NCC(=O)N[C@@H](CC(=O)O)C(=O)N[C@@H](CCC(=O)O)C(=O)N[C@@H](Cc1ccccc1)C(=O)O)[C@@H](C)CC)[C@@H](C)CC", 461),
]

Prompt line: Param item = "CCCCCCCCCCCCCCCC(=O)N[C@H](C(=O)N[C@@H](C)C(=O)N[C@H](CCC(N)=O)C(=O)N[C@@H](CCC(=O)O)C(=O)N[C@@H](CC(C)C)C(=O)N[C@@H](CCCNC(=N)N)C(=O)N[C@@H](CCCNC(=N)N)C(=O)N[C@H](C(=O)NCC(=O)N[C@@H](CC(=O)O)C(=O)N[C@@H](CCC(=O)O)C(=O)N[C@@H](Cc1ccccc1)C(=O)O)[C@@H](C)CC)[C@@H](C)CC" ; retrieve measured IC50.
Response line: 855

Prompt line: Please give the result for "CCCCCCCCCCCCCCCC(=O)N[C@H](C(=O)N[C@@H](C)C(=O)N[C@@H](CCC(N)=O)C(=O)N[C@@H](CCC(=O)O)C(=O)N[C@@H](CC(C)C)C(=O)N[C@@H](CCCNC(=N)N)C(=O)N[C@H](CCCNC(=N)N)C(=O)N[C@H](C(=O)NCC(=O)N[C@@H](CC(=O)O)C(=O)N[C@@H](CCC(=O)O)C(=O)N[C@@H](Cc1ccccc1)C(=O)O)[C@@H](C)CC)[C@@H](C)CC" too.
Response line: 1640

Prompt line: Please give the result for "CCCCCCCCCCCCCCCC(=O)N[C@H](C(=O)N[C@H](CO)C(=O)N[C@@H](CCC(N)=O)C(=O)N[C@@H](CCC(=O)O)C(=O)N[C@@H](CC(C)C)C(=O)N[C@@H](CCCNC(=N)N)C(=O)N[C@@H](CCCNC(=N)N)C(=O)N[C@H](C(=O)NCC(=O)N[C@@H](CC(=O)O)C(=O)N[C@@H](CCC(=O)O)C(=O)N[C@@H](Cc1ccccc1)C(=O)O)[C@@H](C)CC)[C@@H](C)CC" too.
Response line: 4410

Prompt line: Please give the result for "CCCCCCCCCCCCCCCC(=O)N[C@H](C(=O)N[C@H](Cc1cnc[nH]1)C(=O)N[C@@H](CCC(N)=O)C(=O)N[C@@H](CCC(=O)O)C(=O)N[C@@H](CC(C)C)C(=O)N[C@@H](CCCNC(=N)N)C(=O)N[C@@H](CCCNC(=N)N)C(=O)N[C@H](C(=O)NCC(=O)N[C@@H](CC(=O)O)C(=O)N[C@@H](CCC(=O)O)C(=O)N[C@@H](Cc1ccccc1)C(=O)O)[C@@H](C)CC)[C@@H](C)CC" too.
Response line: 871

Prompt line: Please give the result for "CCCCCCCCCCCCCCCC(=O)N[C@H](C(=O)N[C@H](CCC(N)=O)C(=O)N[C@@H](CCC(N)=O)C(=O)N[C@@H](CCC(=O)O)C(=O)N[C@@H](CC(C)C)C(=O)N[C@@H](CCCNC(=N)N)C(=O)N[C@@H](CCCNC(=N)N)C(=O)N[C@H](C(=O)NCC(=O)N[C@@H](CC(=O)O)C(=O)N[C@@H](CCC(=O)O)C(=O)N[C@@H](Cc1ccccc1)C(=O)O)[C@@H](C)CC)[C@@H](C)CC" too.
Response line: 4210

Measured values drawn from ChEMBL document CHEMBL6109070 for this set.
